Tested on: LOX IMVI
experiment: NCI tumour cell line growth inhibition, 48 h
Active and inactive are the calls of the source. No stated cut-off is given here; in the data, active = GI50 up to about 1.1 µM and inactive = higher.
property name: GI50

Task item: Under LOX IMVI: GI50 value of Nc1ncnc2c1nc(-c1ccccc1)n2C1OC(CO)C(O)C1O (stereo not given) ?
Reply: > 100 µM (inactive)

Task item: Moving on to CC1(C)OC2COC3(CNO)OC(C)(C)OC3C2O1 (stereo not given)
Reply: > 100 µM (inactive)

Task item: Same read-out for `COC(=O)c1c2c(cc3c1CC1(Cc4cc5c(cc4C1)CCC5)C3)CCC2` ?
Reply: > 100 µM (inactive)

Task item: Param item: `O=C(CSc1nc2ccc(I)cc2c(=O)n1Cc1ccccc1)NNC(=O)c1ccccc1`
Reply: 22.5 µM (inactive)

Task item: Same question for `C[C@]12CC[C@H]3[C@@H](CCC4=CC(=O)CC[C@@]43C)[C@]1(O)CC[C@]2(O)C(=O)CO` please.
Reply: > 100 µM (inactive)

###

Tested on: MOLT-4
experiment: NCI tumour cell line growth inhibition, 48 h
Calls of active or inactive are those of the source. Cut-off read from the data, not from the text of the source: active = GI50 up to about 1.1 µM and inactive = higher.
Assign a class; possible classes are active, inactive

Task item: Any idea what this test logged for `C[C@@H]1C[C@@H]2C(=O)N(c3ccccc3)C(=O)[C@@H]2c2[nH]c3ccc(Br)cc3c21` ?
Reply: inactive

Task item: Follow-up item: `CN(C)Cc1cc(/C=C/C(=O)c2ccc(Br)cc2)cc(CN(C)C)c1O`
Reply: inactive

Task item: Same again, this time with CC(NC(=O)C(C)C(=O)Nc1ccc(C(F)(F)F)cc1)C(N)=O (stereo unspecified)
Reply: inactive

Task item: Moving on to the next compound: `CC1=C/C(=C2/N=C(N(C)C)SS2)C(C)=N1.[O-][Cl+3]([O-])([O-])O`
Reply: inactive

Task item: Also `CC(=O)OC1=C(c2ccccc2)S(=O)(=O)c2ccccc21` ?
Reply: inactive

Task item: Try this compound next: COc1ccc(N2C(=O)CSC2c2c[nH]c3ccccc23)cc1 (stereo unspecified)
Reply: inactive

Task item: Here is the next compound: `O=C(/C=C/c1ccc(O)c(O)c1)OCCCc1ccccc1`
Reply: active

Task item: Next compound up: S=C1OC2CCCC[C@H]2O1 (stereo partly specified)
Reply: inactive

Task item: For O=C(CC1(O)C(=O)Nc2c(Cl)cc(Cl)cc21)c1cccc2ccccc12 (stereo unspecified) then?
Reply: inactive

Task item: Queued: `CN(C)CN(C)c1nc(N(C)C)nc(N(C)C)n1`
Reply: inactive

Task item: Item: `CS(=O)(=O)c1nc(N)nc2nc[nH]c12`
Reply: inactive

###

Consider the following compounds; for each one, report its GI50.
Test system: MDA-MB-435
experiment: NCI tumour cell line growth inhibition, 48 h
Active and inactive are the calls of the source. Rule as the data show it: active = GI50 up to about 1.1 µM and inactive = higher.

Task item: // returns reported GI50 for input `C[C@]12C[C@H](O)[C@H]3[C@@H](CCC4=CC(=O)CC[C@@]43C)[C@@H]1CC[C@@H]2c1csc(-c2ccccc2)n1`
Reply: > 46.3 µM (inactive)

Task item: Follow-up entry: `COc1cc(OC)c2nc3occc3c(OC)c2c1`
Reply: > 100 µM (inactive)

Task item: Again, but for `O=C(NNC(=O)c1ccccc1Cl)c1ccccc1O`
Reply: 67 µM (inactive)

Task item: Continue with `O=C(Nc1ccc(Cl)c(Cl)c1)OCCN1c2ccccc2Sc2ccccc21`
Reply: > 10 µM (inactive)

Task item: Now the same for `Cn1c(-c2cccs2)cc(-c2cccs2)c1-c1ccsc1`
Reply: > 100 µM (inactive)

Task item: Now the same for O=C1C=C[C@@]23C[C@@H](NC4=C2C2=NCCc5c[nH]c(c52)C4=O)SC3=C1 [1-DEBROMODISCORHABDIN B]
Reply: 1.63 µM (inactive)

Task item: Field entry: `COc1cc2oc(-c3ccc4c(c3)OCO4)c(OC)c(=O)c2c(OC)c1OC`
Reply: > 100 µM (inactive)

Task item: Likewise for COc1ccc(/N=N/C(=O)NC(CC(C)C)C(=O)NC(CC(C)C)C(=O)O)cc1 (stereo unspecified) ?
Reply: 34.5 µM (inactive)

Task item: Please do the same for COC1C(O)C(C)OC(O[C@H]2CC[C@@]3(C)C(CC[C@@H]4[C@@H]3CC[C@]3(C)[C@@H](C(C)OC5OC(CO)C(O)C(O)C5O)CC[C@]43O)C2)C1O (stereo partly specified) as well.
Reply: > 25 µM (inactive)

Task item: COC(=O)C1CN=CN1CCc1ccccc1 (stereo unspecified) , same question.
Reply: > 100 µM (inactive)

Task item: Moving on to `COc1cc2c(cc1OC)C(=O)/C(=C/c1ccccc1)C2`
Reply: > 87.7 µM (inactive)

Task item: What do you have for `CC(C)N1CN(c2ccccc2)C2(CCN(CCCC(=O)c3ccc(F)cc3)CC2)C1=O` ?
Reply: 11.1 µM (inactive)

Task item: One more compound: `COc1ccc(OC)c(C(=O)/C=C/c2cc(O)c(O)cc2F)c1`
Reply: 0.219 µM (active)

Task item: // next record O=C1Nc2ccccc2C1Cc1ccccc1 (stereo unspecified)
Reply: > 100 µM (inactive)

Task item: Another compound to look at: `Cc1ccc2c(c1)-c1nc(N)c(C#N)c(-c3ccccc3)c1CCS2(=O)=O`
Reply: > 100 µM (inactive)

Task item: Same for `O=c1[nH]nc(Cc2ccc(Cl)cc2)n1Nc1ccccc1`
Reply: > 100 µM (inactive)

Task item: How about `CN1CCCN2CCN(C)CCN(CC1)CC2` ?
Reply: > 100 µM (inactive)

Task item: Lookup CNc1ncnc2c1ncn2C1C=CC(COS(N)(=O)=O)C1 (stereo unspecified)
Reply: > 100 µM (inactive)

Task item: Can you check `O=C1N[C@@H]([C@H]2CC[C@H](Cl)CN2)C(=O)N[C@H]1[C@H]1CC[C@H](Cl)CN1` next?
Reply: 1.06 µM (active)

Task item: And then `COc1ncc(C=C(C#N)C#N)c(OC)n1` , what is it?
Reply: 26 µM (inactive)

Task item: Now this one: CN(C)CC1CN/C(=N\C(=O)Nc2ccccc2)O1 (stereo unspecified)
Reply: > 100 µM (inactive)

###

I'd appreciate it if you could supply GI50 values for the items below.
System: OVCAR-4
experiment: NCI tumour cell line growth inhibition, 48 h
Active and inactive are the calls of the source. Rule as the data show it: active = GI50 up to about 1.1 µM and inactive = higher.

Task item: Please give the measured GI50 for this compound: `Cc1ccc(S(=O)(=O)n2c(-c3ccccc3)c(-c3ccccc3)c3ccccc32)cc1`
Reply: > 100 µM (inactive)

Task item: Another compound to check: C1=C2C3=[N+](CCCC3)CC2Cc2sccc21 (stereo not given)
Reply: 42.5 µM (inactive)

Task item: How about `Cc1cccc2oc3c(CC(=O)O)cccc3c(=O)c12` ?
Reply: > 100 µM (inactive)

Task item: Then what about the compound `CC1(C)SCc2nc3ccccc3n21` ?
Reply: > 100 µM (inactive)

Task item: Repeat with `O=C1NC(=S)N/C1=C\c1ccc(Br)s1`
Reply: 53.1 µM (inactive)

###

System: PC-3
experiment: NCI tumour cell line growth inhibition, 48 h
Activity calls are given as the source filed them. No stated cut-off is given here; in the data, active = GI50 up to about 1.1 µM and inactive = higher.
Give measured GI50 for each item. Keep answers brief.

Task item: Need GI50, item `O=C(NNC(=O)c1ccccc1Cl)c1ccccc1O`
Reply: 40.4 µM (inactive)

Task item: Would you kindly repeat that for `O=C(Nc1ccccc1)N(CCCCN(Cc1ccccc1)C(=O)Nc1ccccc1)Cc1ccccc1` ?
Reply: > 100 µM (inactive)

Task item: Next compound: `Nc1c(C(=O)Nc2ccc([As](=O)(O)O)cc2)cnc2nnnn12`
Reply: > 100 µM (inactive)

Task item: How about this compound: `COc1cc(N(CCC#N)CCC#N)ccc1C(/N=N/c1cccc([N+](=O)[O-])c1)=N\NC(=O)c1ccc(C)cc1`
Reply: > 100 µM (inactive)

Task item: Also `Oc1nnnc2c1sc1ncccc12` ?
Reply: > 100 µM (inactive)

###

Tested on: HL-60
experiment: NCI tumour cell line growth inhibition, 48 h
Active and inactive are the calls of the source. Cut-off read from the data, not from the text of the source: active = GI50 up to about 1.1 µM and inactive = higher.
property name: GI50

Task item: GET /values?readout=GI50&item= `CCOc1cccc2cccnc12`
Reply: > 100 µM (inactive)

Task item: What do you have for CC1CN=C(Nc2cccc(C(F)(F)F)c2)S1 (configuration not stated) ?
Reply: 20.7 µM (inactive)

Task item: Let us now turn to CN(C)CC1CCCC/C1=N/OC(=O)c1ccc(Cl)c(Cl)c1 (configuration not stated)
Reply: > 100 µM (inactive)

Task item: Further, for `CCOC(=O)c1cccc(/N=N/Nc2cccc(C(=O)OCC)c2)c1` ?
Reply: > 100 µM (inactive)

Task item: # repeat for `COc1ccc(N2C(=O)c3cc([N+](=O)[O-])cnc3S2(=O)=O)cc1`
Reply: > 100 µM (inactive)

Task item: And `O=c1cc(-c2ccccc2)[nH]c2c(Cl)cccc12` ?
Reply: 9.12 µM (inactive)

Task item: Field entry: O=C1CC(Nc2ccccc2)c2c(Cl)sc(Cl)c21 (configuration not stated)
Reply: 0.199 µM (active)

Task item: Try this compound too: Nc1ncnc2c1nc(-c1ccccc1)n2C1OC(CO)C(O)C1O (configuration not stated)
Reply: > 100 µM (inactive)

Task item: Cool, now CC(=O)/N=S(/NC(=O)c1ccc(C)cc1)C(Cl)(Cl)Cl (configuration not stated)
Reply: 0.226 µM (active)

Task item: Can you check Cc1cn(C2CC(N)C(C(=O)O)O2)c(=O)[nH]c1=O (configuration not stated) next?
Reply: > 100 µM (inactive)

Task item: How about this compound: `O=C(Nc1ccccc1)N(CCCCN(Cc1ccccc1)C(=O)Nc1ccccc1)Cc1ccccc1`
Reply: > 100 µM (inactive)

Task item: Please answer likewise for `CCCCCCCCCCCCOC(=S)NC`
Reply: 27.6 µM (inactive)

The measurements presented in this section are drawn from ChEMBL document CHEMBL1201862.
